Data provenance is patent US20080107614A1.

assay: ELISA of phage-peptide clones on pig skin (specificity control); type: binding; settings: phage ELISA, anti-M13 HRP conjugate; mean of at least three replicates
measure name: Pig Skin A450
API note: the answer field is a bare number with no unit suffix.

Incoming: Which Pig Skin A450 value belongs to LGIPQNL (displayed on phage; Hair-binding peptide) [Clone D39] ?
Outgoing: 0.086

Incoming: Which Pig Skin A450 value belongs to EQISGSLVAAPW [Clone A5] ?
Outgoing: 0.256

Incoming: Which Pig Skin A450 value belongs to SLNWVTIPGPKI [Clone C10] ?
Outgoing: 0.032

Incoming: Which Pig Skin A450 value belongs to MHAHSIA (displayed on phage; Hair-binding peptide) [Clone A36] ?
Outgoing: 0.173

Incoming: Which Pig Skin A450 value belongs to KHGPDLLRSAPR [Clone G-F9, reference compound] ?
Outgoing: −0.137

Incoming: Which Pig Skin A450 value belongs to RTNAADHPAAVT [Peptide D21] ?
Outgoing: 0.04

Incoming: Which Pig Skin A450 value belongs to TAATTSP (displayed on phage; Hair-binding peptide) [Clone B1] ?
Outgoing: 0.127

###

assay: ELISA-based MB50 determination on hair; assay type: binding, human; settings: substrate Bleached Hair; biotinylated peptide
measure name: pEC50
Reminder that pEC50 is minus the log10 of a molar concentration.

Incoming: Which pEC50 value belongs to LPRIANTWSPS [Clone F35] ?
Outgoing: 5.52

###

In this section, each of the substances is paired with its reported Phage Titer.
experiment: Titer-based assay of hair-binding phage clones; set-up: species or system human; settings: output pfu retained by 10 mg of normal hair; input 10^14 pfu; acid-eluted phage

Record excerpt, results attached:
KHPTYRQ (displayed on phage; Hair-binding peptide) [Clone H]; 1.30 × 10^6
MPKYYLQ (displayed on phage; Hair-binding peptide) [Clone J]; 1.24 × 10^6
MPLYYLQ (displayed on phage; Hair-binding peptide) [Clone E]; 1.70 × 10^5
GPHDTSSGGVRPNLHHTSKKEKRENRKVPFYSHSVTSRGNV [Clone G]; 1.67 × 10^8
HIKPPTR (displayed on phage; Hair-binding peptide) [Clone B]; 1.21 × 10^5

Incoming: Which Phage Titer value belongs to HLTVPWRGGGSAVPFYSHSQITLPNH [Clone F] ?
Outgoing: 1.11 × 10^6

Incoming: Which Phage Titer value belongs to HPVWPAI (displayed on phage; Hair-binding peptide) [Clone D] ?
Outgoing: 8.20 × 10^4

Incoming: Which Phage Titer value belongs to DLHTVYH (displayed on phage; Hair-binding peptide) [Clone A] ?
Outgoing: 7.50 × 10^4

###

In this section, each of the sequences is paired with its reported Pig Skin A450.
test: ELISA of phage-peptide clones on pig skin (specificity control); format: binding; settings: phage ELISA, anti-M13 HRP conjugate; mean of at least three replicates
API note: the answer field is a bare number with no unit suffix.

Incoming: Which Pig Skin A450 value belongs to NSPGYQADSVAIG [Clone D30] ?
Outgoing: 0.287

Incoming: Which Pig Skin A450 value belongs to TDMQAPTKSYSN [Clone C5] ?
Outgoing: 0.047

Incoming: Which Pig Skin A450 value belongs to AKTHKHPAPSYS [Clone C13] ?
Outgoing: 0.024

Incoming: Which Pig Skin A450 value belongs to TPALDGLRQPLR [Clone C18] ?
Outgoing: 0.132

Incoming: Which Pig Skin A450 value belongs to GPHDTSSGGVRPNLHHTSKKEKRENRKVPFYSHSVTSRGNV [Clone D5] ?
Outgoing: 0.104
